# assayComment: Maximum concentration determined in rats dosed intravenously with 20 mg/kg
# Assay type: ADME, organism-based
# Parameters: dose 20 mg/kg, route intravenous
# experimentalParameters: rat, in vivo, iv

smilesString | uom | Cmax
Nc1nc(/C(=N\OCCF)C(=O)N[C@@H]2C(=O)N3C(C(=O)[O-])=C(Sc4nc5cnccc5s4)CC[C@H]23)cs1.[Na+] | µg/mL | 56.7

* * *

# assayComment: Tested against penicillin binding protein 2a (PBP2a) enzyme.

compound | uom | IC50
Nc1nc(/C(=N\OCCF)C(=O)N[C@@H]2C(=O)N3C(C(=O)[O-])=C(Sc4nc5ccccc5s4)CC[C@H]23)cs1.[Na+] | µg/mL | 3.5
Nc1nc(/C(=N\OCCF)C(=O)N[C@@H]2C(=O)N3C(C(=O)[O-])=C(Sc4nc5ccc([N+](=O)[O-])cc5s4)CC[C@H]23)cs1.[Na+] | µg/mL | 0.85
CCOc1ccc2ccccc2c1C(=O)N[C@@H]1C(=O)N2[C@@H]1SC(C)(C)[C@@H]2C(=O)O [NAFCILLIN] | µg/mL | 200
COc1cccc(OC)c1C(=O)N[C@@H]1C(=O)N2[C@@H]1SC(C)(C)[C@@H]2C(=O)O [METHICILLIN] | µg/mL | 456

* * *

# Organism: Rattus norvegicus
# assayComment: In vitro plasma protein binding was evaluated using Sprauge-Dawley rat at 20 ug/mL
# Format: ADME

molecule | Bound [%]
Nc1nc(/C(=N\OCCF)C(=O)N[C@@H]2C(=O)N3C(C(=O)[O-])=C(Sc4nc5ccc([N+](=O)[O-])cc5s4)CC[C@H]23)cs1.[Na+] | 98.3
CO/N=C(\C(=O)N[C@@H]1C(=O)N2C(C(=O)O)=C(COC(C)=O)CS[C@H]12)c1csc(N)n1 [CEFOTAXIME] | 88.5
Nc1nc(/C(=N\OCCF)C(=O)N[C@@H]2C(=O)N3C(C(=O)[O-])=C(Sc4nc5cnccc5s4)CC[C@H]23)cs1.[Na+] | 95
Nc1nc(/C(=N\OCCF)C(=O)N[C@@H]2C(=O)N3C(C(=O)[O-])=C(Sc4nncs4)CC[C@H]23)cs1.[Na+] | 63.1

* * *

# Test system: Haemophilus influenzae
# assayComment: In vitro antimicrobial activity against Haemophilus influenzae C.L. strain
# Assay type: functional
MIC by entry:

smilesString | boundType | MIC [µg/mL]
Nc1nc(/C(=N\OCCF)C(=O)N[C@@H]2C(=O)N3C(C(=O)[O-])=C(Sc4nc(C(=O)O)cs4)CC[C@H]23)cs1.[Na+] | = | 0.015
Cc1csc(SC2=C(C(=O)[O-])N3C(=O)[C@@H](NC(=O)/C(=N/OCCF)c4csc(N)n4)[C@H]3CC2)n1.[Na+] | < | 0.008
Cn1nnnc1SC1=C(C(=O)[O-])N2C(=O)[C@@H](NC(=O)/C(=N/OCCF)c3csc(N)n3)[C@H]2CC1.[Na+] | = | 0.015
Nc1nc(/C(=N\OCCF)C(=O)N[C@@H]2C(=O)N3C(C(=O)[O-])=C(SC4=NCCS4)CC[C@H]23)cs1.[Na+] | < | 0.008
Cn1ccnc1SC1=C(C(=O)[O-])N2C(=O)[C@@H](NC(=O)/C(=N/OCCF)c3csc(N)n3)[C@H]2CC1.[Na+] | = | 0.03
Nc1nc(/C(=N\OCCF)C(=O)N[C@@H]2C(=O)N3C(C(=O)[O-])=C(Sc4nc5ccccc5o4)CC[C@H]23)cs1.[Na+] | = | 0.03
CC(=O)c1sc(SC2=C(C(=O)[O-])N3C(=O)[C@@H](NC(=O)/C(=N/OCCF)c4csc(N)n4)[C@H]3CC2)nc1C.[Na+] | = | 0.06
Nc1nc(/C(=N\OCCF)C(=O)N[C@@H]2C(=O)N3C(C(=O)[O-])=C(Sc4nc5ccccc5[nH]4)CC[C@H]23)cs1.[Na+] | = | 0.015
Nc1nc(/C(=N\OCCF)C(=O)N[C@@H]2C(=O)N3C(C(=O)[O-])=C(Sc4nc5ccncc5s4)CC[C@H]23)cs1.[Na+] | = | 0.015
Nc1nc(/C(=N\OCCF)C(=O)N[C@@H]2C(=O)N3C(C(=O)[O-])=C(Sc4ncccn4)CC[C@H]23)cs1.[Na+] | = | 0.03
COC(=O)c1sc(SC2=C(C(=O)[O-])N3C(=O)[C@@H](NC(=O)/C(=N/OCCF)c4csc(N)n4)[C@H]3CC2)nc1C.[Na+] | = | 0.06
C[n+]1ccc2sc(SC3=C(C(=O)[O-])N4C(=O)[C@@H]([N-]C(=O)/C(=N/OCCF)c5csc(N)n5)[C@H]4CC3)nc2c1.[Na+] | = | 0.06
Nc1nc(/C(=N\OCCF)C(=O)N[C@@H]2C(=O)N3C(C(=O)[O-])=C(Sc4nnc(O)c(O)n4)CC[C@H]23)cs1.[Na+] | = | 0.03
Nc1nc(/C(=N\OCCF)C(=O)N[C@@H]2C(=O)N3C(C(=O)[O-])=C(Sc4ccccc4)CC[C@H]23)cs1.[Na+] | = | 0.03

* * *

# Test system: Haemophilus influenzae
# assayComment: In vitro antimicrobial activity against Haemophilus influenzae C.L. strain
# Type: functional

smilesString | MIC
Nc1nc(/C(=N\OCCF)C(=O)N[C@@H]2C(=O)N3C(C(=O)[O-])=C(Sc4snc5ccccc45)CC[C@H]23)cs1.[Na+] | 0.03 µg/mL
Nc1nc(/C(=N\OCCF)C(=O)N[C@@H]2C(=O)N3C(C(=O)[O-])=C(Sc4nc5cccnc5s4)CC[C@H]23)cs1.[Na+] | 0.03 µg/mL
Nc1nc(/C(=N\OCCF)C(=O)N[C@@H]2C(=O)N3C(C(=O)[O-])=C(Sc4nc5cc(Cl)ccc5s4)CC[C@H]23)cs1.[Na+] | 0.06 µg/mL
Nc1nc(/C(=N\OCCF)C(=O)N[C@@H]2C(=O)N3C(C(=O)[O-])=C(Sc4nccs4)CC[C@H]23)cs1.[Na+] | < 0.008 µg/mL
Nc1nc(/C(=N\OCCF)C(=O)N[C@@H]2C(=O)N3C(C(=O)[O-])=C(Sc4nc(-c5ccncc5)cs4)CC[C@H]23)cs1.[Na+] | 0.03 µg/mL
Nc1ccc2nc(SC3=C(C(=O)[O-])N4C(=O)[C@@H](NC(=O)/C(=N/OCCF)c5csc(N)n5)[C@H]4CC3)sc2c1.[Na+] | 0.03 µg/mL
CCOc1ccc2nc(SC3=C(C(=O)[O-])N4C(=O)[C@@H](NC(=O)/C(=N/OCCF)c5csc(N)n5)[C@H]4CC3)sc2c1.[Na+] | 0.125 µg/mL
Nc1nc(/C(=N\OCCF)C(=O)N[C@@H]2C(=O)N3C(C(=O)[O-])=C(Sc4nncs4)CC[C@H]23)cs1.[Na+] | 0.015 µg/mL
Nc1nc(/C(=N\OCCF)C(=O)N[C@@H]2C(=O)N3C(C(=O)[O-])=C(Sc4nc(-c5ccccc5)cs4)CC[C@H]23)cs1.[Na+] | 0.03 µg/mL
CCOC(=O)c1csc(SC2=C(C(=O)[O-])N3C(=O)[C@@H](NC(=O)/C(=N/OCCF)c4csc(N)n4)[C@H]3CC2)n1.[Na+] | 0.06 µg/mL
Nc1nc(/C(=N\OCCF)C(=O)N[C@@H]2C(=O)N3C(C(=O)[O-])=C(Sc4nc5ccccc5s4)CC[C@H]23)cs1.[Na+] | 0.03 µg/mL
CO/N=C(\C(=O)N[C@@H]1C(=O)N2C(C(=O)O)=C(COC(C)=O)CS[C@H]12)c1csc(N)n1 | 0.015 µg/mL
Nc1nc(/C(=N\OCCF)C(=O)N[C@@H]2C(=O)N3C(C(=O)[O-])=C(Sc4cccc[n+]4[O-])CC[C@H]23)cs1.[Na+] | 0.015 µg/mL
Nc1nc(/C(=N\OCCF)C(=O)N[C@@H]2C(=O)N3C(C(=O)[O-])=C(Sc4nc5cncnc5s4)CC[C@H]23)cs1.[Na+] | 0.03 µg/mL
Nc1nc(/C(=N\OCCF)C(=O)N[C@@H]2C(=O)N3C(C(=O)[O-])=C(Sc4nc5c(=O)[nH]c(=O)[nH]c5s4)CC[C@H]23)cs1.[Na+] | < 0.008 µg/mL
Cn1c(SC2=C(C(=O)[O-])N3C(=O)[C@@H](NC(=O)/C(=N/OCCF)c4csc(N)n4)[C@H]3CC2)n[nH]c(=O)c1=O.[Na+] | 0.03 µg/mL
CCOc1nn(C)c(SC2=C(C(=O)[O-])N3C(=O)[C@@H](NC(=O)/C(=N/OCCF)c4csc(N)n4)[C@H]3CC2)nc1=O.[Na+] | 0.03 µg/mL
Cc1cnc(SC2=C(C(=O)[O-])N3C(=O)[C@@H](NC(=O)/C(=N/OCCF)c4csc(N)n4)[C@H]3CC2)s1.[Na+] | < 0.008 µg/mL
CCCCOC(=O)c1csc(SC2=C(C(=O)[O-])N3C(=O)[C@@H](NC(=O)/C(=N/OCCF)c4csc(N)n4)[C@H]3CC2)n1.[Na+] | 0.03 µg/mL
Nc1nc(/C(=N\OCCF)C(=O)N[C@@H]2C(=O)N3C(C(=O)[O-])=C(Sc4ccncc4)CC[C@H]23)cs1.[Na+] | 0.015 µg/mL
Nc1nc(/C(=N\OCCF)C(=O)N[C@@H]2C(=O)N3C(C(=O)[O-])=C(Sc4nc5ccc([N+](=O)[O-])cc5s4)CC[C@H]23)cs1.[Na+] | 0.03 µg/mL
Nc1nc(/C(=N\OCCF)C(=O)N[C@@H]2C(=O)N3C(C(=O)[O-])=C(Sc4nc5c(N)ncnc5s4)CC[C@H]23)cs1.[Na+] | 0.03 µg/mL
Nc1nc(/C(=N\OCCF)C(=O)N[C@@H]2C(=O)N3C(C(=O)[O-])=C(Sc4nccnc4N)CC[C@H]23)cs1.[Na+] | 0.015 µg/mL
COc1cccc(OC)c1C(=O)N[C@@H]1C(=O)N2[C@@H]1SC(C)(C)[C@@H]2C(=O)O | 4 µg/mL
Nc1nc(/C(=N\OCCF)C(=O)N[C@@H]2C(=O)N3C(C(=O)[O-])=C(Sc4nc(-c5cccnc5)cs4)CC[C@H]23)cs1.[Na+] | 0.015 µg/mL
Nc1nc(/C(=N\OCCF)C(=O)N[C@@H]2C(=O)N3C(C(=O)[O-])=C(Sc4nc5cnccc5s4)CC[C@H]23)cs1.[Na+] | 0.03 µg/mL
